# tested-on: feline FcRn complex (FcRn-α subunit and β-microglobulin), biotin labeled (feline)
# test-protocol: SPR, pH 6
pKd: −log10 of the molar value.
Label yes for high-side pKd (at or above 8) and no for low-side pKd (below it).

q: Has feline IgG1a T256Y (antibody, part only; not given: Variable domains, not shown: another chain or arm of the molecule) constant: ASTTAPSVFPLAPSCGTTSGATVALACLVLGYFPEPVTVSWNSGALTSGVHTFPAVLQASGLYSLSSMVTVPSSRWLSDTFTCNVAHPPSNTKVDKTVRKTDHPPGPKPCDCPKCPPPEMLGGPSIFIFPPKPKDTLSISRYPEVTCLVVDLGPDDSDVQITWFVDNTQVYTAKTSPREEQFNSTYRVVSVLPILHQDWLKGKEFKCKVNSKSLPSPIERTISKAKGQPHEPQVYVLPPAQEELSRNKVSVTCLIKSFHPPDIAVEWEITGQPEPENNYRTTPPQLDSDGTYFVYSKLSVDRSHWQRGNTYTCSVSHEALHSHHTQKSLTQSPGK a recorded pKd greater than or equal to 8?
a: no

q: Dear colleague, could you confirm whether feline IgG1a S252F/S434H (antibody, part only; not given: Variable domains, not shown: another chain or arm of the molecule) constant: ASTTAPSVFPLAPSCGTTSGATVALACLVLGYFPEPVTVSWNSGALTSGVHTFPAVLQASGLYSLSSMVTVPSSRWLSDTFTCNVAHPPSNTKVDKTVRKTDHPPGPKPCDCPKCPPPEMLGGPSIFIFPPKPKDTLFISRTPEVTCLVVDLGPDDSDVQITWFVDNTQVYTAKTSPREEQFNSTYRVVSVLPILHQDWLKGKEFKCKVNSKSLPSPIERTISKAKGQPHEPQVYVLPPAQEELSRNKVSVTCLIKSFHPPDIAVEWEITGQPEPENNYRTTPPQLDSDGTYFVYSKLSVDRSHWQRGNTYTCSVSHEALHHHHTQKSLTQSPGK has pKd at or above 8?
a: yes

q: Identify whether the reported pKd of the following binder is 8 or greater: feline IgG1a S252M (antibody, part only; not given: Variable domains, not shown: another chain or arm of the molecule) constant: ASTTAPSVFPLAPSCGTTSGATVALACLVLGYFPEPVTVSWNSGALTSGVHTFPAVLQASGLYSLSSMVTVPSSRWLSDTFTCNVAHPPSNTKVDKTVRKTDHPPGPKPCDCPKCPPPEMLGGPSIFIFPPKPKDTLMISRTPEVTCLVVDLGPDDSDVQITWFVDNTQVYTAKTSPREEQFNSTYRVVSVLPILHQDWLKGKEFKCKVNSKSLPSPIERTISKAKGQPHEPQVYVLPPAQEELSRNKVSVTCLIKSFHPPDIAVEWEITGQPEPENNYRTTPPQLDSDGTYFVYSKLSVDRSHWQRGNTYTCSVSHEALHSHHTQKSLTQSPGK
a: no

q: Hi, just wondering whether feline IgG1a S252Y/S434F/Q311W (antibody, part only; not given: Variable domains, not shown: another chain or arm of the molecule) constant: ASTTAPSVFPLAPSCGTTSGATVALACLVLGYFPEPVTVSWNSGALTSGVHTFPAVLQASGLYSLSSMVTVPSSRWLSDTFTCNVAHPPSNTKVDKTVRKTDHPPGPKPCDCPKCPPPEMLGGPSIFIFPPKPKDTLYISRTPEVTCLVVDLGPDDSDVQITWFVDNTQVYTAKTSPREEQFNSTYRVVSVLPILHWDWLKGKEFKCKVNSKSLPSPIERTISKAKGQPHEPQVYVLPPAQEELSRNKVSVTCLIKSFHPPDIAVEWEITGQPEPENNYRTTPPQLDSDGTYFVYSKLSVDRSHWQRGNTYTCSVSHEALHFHHTQKSLTQSPGK shows pKd of 8 or higher.
a: no

q: Is pKd at least 8? Consider feline IgG1a wild-type (WT) (antibody, part only; not given: Variable domains, not shown: another chain or arm of the molecule) constant: ASTTAPSVFPLAPSCGTTSGATVALACLVLGYFPEPVTVSWNSGALTSGVHTFPAVLQASGLYSLSSMVTVPSSRWLSDTFTCNVAHPPSNTKVDKTVRKTDHPPGPKPCDCPKCPPPEMLGGPSIFIFPPKPKDTLSISRTPEVTCLVVDLGPDDSDVQITWFVDNTQVYTAKTSPREEQFNSTYRVVSVLPILHQDWLKGKEFKCKVNSKSLPSPIERTISKAKGQPHEPQVYVLPPAQEELSRNKVSVTCLIKSFHPPDIAVEWEITGQPEPENNYRTTPPQLDSDGTYFVYSKLSVDRSHWQRGNTYTCSVSHEALHSHHTQKSLTQSPGK
a: no

q: Item feline IgG1a S252H/S428M/S434Y (antibody, part only; not given: Variable domains, not shown: another chain or arm of the molecule) constant: ASTTAPSVFPLAPSCGTTSGATVALACLVLGYFPEPVTVSWNSGALTSGVHTFPAVLQASGLYSLSSMVTVPSSRWLSDTFTCNVAHPPSNTKVDKTVRKTDHPPGPKPCDCPKCPPPEMLGGPSIFIFPPKPKDTLHISRTPEVTCLVVDLGPDDSDVQITWFVDNTQVYTAKTSPREEQFNSTYRVVSVLPILHQDWLKGKEFKCKVNSKSLPSPIERTISKAKGQPHEPQVYVLPPAQEELSRNKVSVTCLIKSFHPPDIAVEWEITGQPEPENNYRTTPPQLDSDGTYFVYSKLSVDRSHWQRGNTYTCSVMHEALHYHHTQKSLTQSPGK with pKd of 8 or above?
a: yes
